# Tested on: three-dimensional hepatic tissue consisting only of human hepatocytes (PXB cells)
# protocol.notes: ATP assay (CellTiter Glo 3D) viability after exposure to hepatotoxicity-inducing compounds, Test Example 6 Condition 1
# Type: cell-based
# conditions.used: Hepatocyte, calculated from cell viability (ATP), exposure 168 hours from day 8 of culture, no bile acids, read-out: IC50 Condition 1 (present tissue)
Consider the following molecules and their measured IC50 readings.
measured.metric: IC50 (µM)

molecule: CS(=O)(=O)Nc1ccc([N+](=O)[O-])cc1Oc1ccccc1 [Nimesulide]
measured.metric: IC50
meas.value: 323

molecule: O=C(O)Cc1ccccc1Nc1c(Cl)cccc1Cl
measured.metric: IC50
meas.value: 337

molecule: CC(C)C(=O)Nc1ccc([N+](=O)[O-])c(C(F)(F)F)c1 [Flutamide]
measured.metric: IC50
meas.value: 63.9

molecule: Cc1c(C)c2c(c(C)c1O)CCC(C)(COc1ccc(CC3SC(=O)NC3=O)cc1)O2 (stereo not shown)
measured.metric: IC50
meas.value: 92.9

---

# System: three-dimensional hepatic tissue consisting only of human hepatocytes (PXB cells)
# protocol.notes: ATP assay (CellTiter Glo 3D) viability after exposure to hepatotoxicity-inducing compounds, Test Example 6 Condition 1
# Assay type: cell-based
# conditions.used: Hepatocyte, calculated from cell viability (ATP), exposure 168 hours from day 8 of culture, no bile acids, read-out: IC50 Condition 1 (present tissue)
Consider the following compounds and their measured IC50 readings.

compound: CCc1oc2ccccc2c1C(=O)c1cc(Br)c(O)c(Br)c1
IC50 [µM]: 249
--
compound: CC(=O)Nc1ccc(O)cc1
IC50 [µM]: 5510
--
compound: C1CCC(C(CC2CCCCN2)C2CCCCC2)CC1 (stereo not drawn)
IC50 [µM]: 3.6
--
compound: CC(=O)N1CCN(c2ccc(OCC3COC(Cn4ccnc4)(c4ccc(Cl)cc4Cl)O3)cc2)CC1 (stereo not drawn)
IC50 [µM]: 80.7
--
compound: CN(C)CCCN1c2ccccc2Sc2ccc(Cl)cc21
IC50 [µM]: 26.6
--
compound: Cc1ccc(C(=O)c2cc(O)c(O)c([N+](=O)[O-])c2)cc1
IC50 [µM]: 132
--
compound: CCc1nn(CCCN2CCN(c3cccc(Cl)c3)CC2)c(=O)n1CCOc1ccccc1
IC50 [µM]: 39.9
--
compound: NC(=O)N1c2ccccc2C=Cc2ccccc21 [Carbamazepine]
IC50 [µM]: 843
--
compound: CS(=O)(=O)CCNCc1ccc(-c2ccc3ncnc(Nc4ccc(OCc5cccc(F)c5)c(Cl)c4)c3c2)o1
IC50 [µM]: 8.4

These measurements were taken from patent US20250368962A1.
